Each recorded value in this set is attributed to PubChem BioAssay AID2060501.

Test system: 282377-053-R-J1-PDC complex spheroids, viability
Experiment: Anticancer human tumor 282377-053-R-J1-PDC patient-derived colon adenocarcinoma cell line growth inhibition [GQUAD]
Conditions: second compound 0.316 µM; first compound 0.0316 µM; stronger effect = lower value
Mark each entry condition met if its viability, T/C sits below 90%, and condition not met for all others.

Check if viability, T/C falls below 90% for CC(=O)O[C@H]1C(=O)[C@@]2(C)[C@H]([C@H](OC(=O)c3ccccc3)[C@]3(O)C[C@H](OC(=O)[C@H](O)[C@@H](NC(=O)c4ccccc4)c4ccccc4)C(C)=C1C3(C)C)[C@]1(OC(C)=O)CO[C@@H]1C[C@@H]2O + CN(C)c1ccc(Nc2c3ccc(NC(=O)CCN4CCCC4)cc3nc3cc(NC(=O)CCN4CCCC4)ccc23)cc1 .
condition met

Field: below-cutoff. Rule: recorded viability, T/C strictly less than 90%. Subject: CC(C)(O)C1CCC(Nc2ccc3ncc(-c4cccc(C(F)(F)F)c4)n3n2)CC1 (stereo not drawn) + Cc1cnc(CNC(=O)c2c(=O)c3ccc(N4CCCN(C)CC4)nc3n3c2sc2ccccc23)cn1
condition met

Is it true that viability, T/C reported for CC[C@@]1(O)C(=O)OCc2c1cc1n(c2=O)Cc2cc3c(CN(C)C)c(O)ccc3nc2-1 + Cc1[nH]c2ccc(F)cc2c1-c1nc2c3cccnc3c3ncccc3c2[nH]1 is less than 90%?
condition not met

Dear reviewer, please state whether CC(C)(O)C1CCC(Nc2ccc3ncc(-c4cccc(C(F)(F)F)c4)n3n2)CC1 (stereo not drawn) + Cc1[nH]c2ccc(F)cc2c1-c1nc2c3cccnc3c3ncccc3c2[nH]1 has viability, T/C strictly beneath 90%.
condition not met

hey, is viability, T/C for Cn1ncnc1[C@H]1c2n[nH]c(=O)c3cc(F)cc(c23)N[C@@H]1c1ccc(F)cc1 + Cc1[nH]c2ccc(F)cc2c1-c1nc2c3cccnc3c3ncccc3c2[nH]1 lower than 90% or not?
condition not met

Report whether reported viability, T/C is lower than 90% (strictly) for COc1ncnc(C2CC2)c1-c1ncc2cnn(Cc3ccc(-c4nc(C(F)(F)F)cn4C(C)C)cc3)c2n1 + Cc1[nH]c2ccc(F)cc2c1-c1nc2c3cccnc3c3ncccc3c2[nH]1
condition not met

Does this compound meet the criterion viability, T/C < 90%? CC1COCCN1c1cc(-c2ccnn2C)c2ccnc(-c3ccn[nH]3)c2n1 (stereo not drawn) + CN(C)c1ccc(Nc2c3ccc(NC(=O)CCN4CCCC4)cc3nc3cc(NC(=O)CCN4CCCC4)ccc23)cc1
condition met

Here's an entry: C=CCn1c(=O)c2cnc(Nc3ccc(N4CCN(C)CC4)cc3)nc2n1-c1cccc(C(C)(C)O)n1 + CN(C)c1ccc(Nc2c3ccc(NC(=O)CCN4CCCC4)cc3nc3cc(NC(=O)CCN4CCCC4)ccc23)cc1 . Is its viability, T/C below 90%?
condition not met

Lab note: viability, T/C threshold 90%. Does this compound come in strictly under it? C=CC(=O)N1CCN(c2nc(=O)n(-c3c(C)ccnc3C(C)C)c3nc(-c4c(O)cccc4F)c(F)cc23)C(C)C1 (stereo not drawn) + CN(C)c1ccc(Nc2c3ccc(NC(=O)CCN4CCCC4)cc3nc3cc(NC(=O)CCN4CCCC4)ccc23)cc1
condition not met

Would you kindly verify if viability, T/C of O=C(c1cc(Cc2n[nH]c(=O)c3ccccc23)ccc1F)N1CCN(C(=O)C2CC2)CC1 + Cc1cnc(CNC(=O)c2c(=O)c3ccc(N4CCCN(C)CC4)nc3n3c2sc2ccccc23)cn1 is strictly less than 90%?
condition met

Item Nc1ccn(C2OC(CO)C(O)C2(F)F)c(=O)n1 (stereo not drawn) + Cc1cnc(CNC(=O)c2c(=O)c3ccc(N4CCCN(C)CC4)nc3n3c2sc2ccccc23)cn1 : viability, T/C beneath 90%, strictly?
condition met

Bench note: check whether Nc1ccn(C2OC(CO)C(O)C2(F)F)c(=O)n1 (stereo not drawn) + Cc1[nH]c2ccc(F)cc2c1-c1nc2c3cccnc3c3ncccc3c2[nH]1 shows viability, T/C below 90%
condition not met

A record lists C#Cc1c(F)ccc2cc(O)cc(-c3ncc4c(N5CC6CCC(C5)N6)nc(OCC56CCCN5CC(F)C6)nc4c3F)c12 (stereo not drawn) + Cc1[nH]c2ccc(F)cc2c1-c1nc2c3cccnc3c3ncccc3c2[nH]1 . Is its viability, T/C below 90%?
condition not met

Does O=C(NO)c1cnc(N2CCN(S(=O)(=O)c3ccc4ccccc4c3)CC2)nc1 + Cc1cnc(CNC(=O)c2c(=O)c3ccc(N4CCCN(C)CC4)nc3n3c2sc2ccccc23)cn1 have viability, T/C strictly under 90%?
condition met

Hello, I'm reviewing records and need to know if viability, T/C of C#Cc1c(F)ccc2cc(O)cc(-c3ncc4c(N5CC6CCC(C5)N6)nc(OCC56CCCN5CC(F)C6)nc4c3F)c12 (stereo not drawn) + CN(C)c1ccc(Nc2c3ccc(NC(=O)CCN4CCCC4)cc3nc3cc(NC(=O)CCN4CCCC4)ccc23)cc1 is below 90%. Could you check?
condition not met

Decide: viability, T/C of Cc1[nH]c2ccccc2c1CCNCc1ccc(/C=C/C(=O)NO)cc1 + Cc1[nH]c2ccc(F)cc2c1-c1nc2c3cccnc3c3ncccc3c2[nH]1 strictly below 90%?
condition not met

For this compound, is viability, T/C lower than 90%? O=C(c1cc(Cc2n[nH]c(=O)c3ccccc23)ccc1F)N1CCN(C(=O)C2CC2)CC1 + Cc1[nH]c2ccc(F)cc2c1-c1nc2c3cccnc3c3ncccc3c2[nH]1
condition not met

State whether 90% exceeds viability, T/C recorded for Nc1ccn(C2OC(CO)C(O)C2(F)F)c(=O)n1 (stereo not drawn) + CN(C)c1ccc(Nc2c3ccc(NC(=O)CCN4CCCC4)cc3nc3cc(NC(=O)CCN4CCCC4)ccc23)cc1 .
condition not met

Could you please tell me whether viability, T/C recorded for CC(C)(O)C1CCC(Nc2ccc3ncc(-c4cccc(C(F)(F)F)c4)n3n2)CC1 (stereo not drawn) + CN(C)c1ccc(Nc2c3ccc(NC(=O)CCN4CCCC4)cc3nc3cc(NC(=O)CCN4CCCC4)ccc23)cc1 is less than 90%?
condition not met

Is viability, T/C of CC1COCCN1c1cc(C2(S(C)(=N)=O)CC2)nc(-c2ccnc3[nH]ccc23)n1 (stereo not drawn) + Cc1[nH]c2ccc(F)cc2c1-c1nc2c3cccnc3c3ncccc3c2[nH]1 strictly below 90%?
condition not met

For this compound, is viability, T/C lower than 90%? O=C(NO)c1cnc(N2CCN(S(=O)(=O)c3ccc4ccccc4c3)CC2)nc1 + CN(C)c1ccc(Nc2c3ccc(NC(=O)CCN4CCCC4)cc3nc3cc(NC(=O)CCN4CCCC4)ccc23)cc1
condition not met

* * *

Test system: 282377-053-R-J1-PDC complex spheroids, viability
Experiment: Anticancer human tumor 282377-053-R-J1-PDC cell line growth inhibition [GQUAD]; active = viability on the fitted dose curve at most 10% of control; inactive = the rest;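 note: spheroids exposed to compounds for 7 days before readout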
Conditions: second compound 1 µM; first compound 10 µM
Choose one outcome from this list and give only that: yes = active, no = inactive

Check the results log: what was the call for CC(C)(O)C1CCC(Nc2ccc3ncc(-c4cccc(C(F)(F)F)c4)n3n2)CC1 (stereo unspecified) + Cc1cnc(CNC(=O)c2c(=O)c3ccc(N4CCCN(C)CC4)nc3n3c2sc2ccccc23)cn1 ?
no

So what was the verdict on Nc1ccn(C2OC(CO)C(O)C2(F)F)c(=O)n1 (stereo unspecified) + Cc1[nH]c2ccc(F)cc2c1-c1nc2c3cccnc3c3ncccc3c2[nH]1 in this test?
no

Can you look up the reported call for CC(C)n1c(=O)n(C)c2cnc3cc(F)c(-c4ccc(OCCCN5CCCCC5)nc4)cc3c21 + Cc1[nH]c2ccc(F)cc2c1-c1nc2c3cccnc3c3ncccc3c2[nH]1 for me?
no

I'd appreciate the recorded outcome for C#Cc1c(F)ccc2cc(O)cc(-c3ncc4c(N5CC6CCC(C5)N6)nc(OCC56CCCN5CC(F)C6)nc4c3F)c12 (stereo unspecified) + Cc1cnc(CNC(=O)c2c(=O)c3ccc(N4CCCN(C)CC4)nc3n3c2sc2ccccc23)cn1 from this test.
no

Entry O=C(c1cc(Cc2n[nH]c(=O)c3ccccc23)ccc1F)N1CCN(C(=O)C2CC2)CC1 + CN(C)c1ccc(Nc2c3ccc(NC(=O)CCN4CCCC4)cc3nc3cc(NC(=O)CCN4CCCC4)ccc23)cc1 : call = ?
no

For this molecule, state the assay outcome: CC1COCCN1c1cc(C2(O)CC3CCC(C2)O3)c2cnn(-c3ccn[nH]3)c2n1 (stereo unspecified) + CN(C)c1ccc(Nc2c3ccc(NC(=O)CCN4CCCC4)cc3nc3cc(NC(=O)CCN4CCCC4)ccc23)cc1
no

Dear colleague, could you share the recorded outcome for COc1ccc([C@@H](O)c2cc(-c3ncnc4cc(N5CCOCC5)ccc34)c(F)cc2Cl)nn1 + Cc1cnc(CNC(=O)c2c(=O)c3ccc(N4CCCN(C)CC4)nc3n3c2sc2ccccc23)cn1 when you have a moment?
no

Each molecule tested received a call. Report the one for COc1ncnc(C2CC2)c1-c1ncc2cnn(Cc3ccc(-c4nc(C(F)(F)F)cn4C(C)C)cc3)c2n1 + CN(C)c1ccc(Nc2c3ccc(NC(=O)CCN4CCCC4)cc3nc3cc(NC(=O)CCN4CCCC4)ccc23)cc1 .
no

Recorded test outcome, item CC1COCCN1c1cc(C2(S(C)(=N)=O)CC2)nc(-c2ccnc3[nH]ccc23)n1 (stereo unspecified) + Cc1[nH]c2ccc(F)cc2c1-c1nc2c3cccnc3c3ncccc3c2[nH]1
no

I'd appreciate the recorded outcome for COc1cccc2c1C(=O)c1c(O)c3c(c(O)c1C2=O)CC(O)(C(=O)CO)CC3OC1CC(N)C(O)C(C)O1 (stereo unspecified) + Cc1cnc(CNC(=O)c2c(=O)c3ccc(N4CCCN(C)CC4)nc3n3c2sc2ccccc23)cn1 from this test.
yes

Dear colleague, could you share the recorded outcome for CC1COCCN1c1cc(-c2ccnn2C)c2ccnc(-c3ccn[nH]3)c2n1 (stereo unspecified) + Cc1cnc(CNC(=O)c2c(=O)c3ccc(N4CCCN(C)CC4)nc3n3c2sc2ccccc23)cn1 when you have a moment?
no
